Assay: Brain to plasma ratio (AUC 0-6 h) in female FVB mice
Type: in vivo
Settings: mouse, brain and plasma, 100 mg/kg, 100 mpk dose, AUC (0-6 h)
parameter: Kp
Simply state the number, no unit and no words.

Record summary for CC(=O)NC(Cc1cc(F)cc(F)c1)C(O)CNC1(CCCC(C)(C)C)CC1 (stereo not shown) : reported Kp = 2.1

###

Test: In vitro permeability across a monolayer of MDCK cells in a transwell device
Assay type: in vitro ADME, Canine
Conditions: dog, MDCK, test compound 5 μM, 2 h at 37° C., apical to basolateral, read-out: Permeability Forward A > B
parameter: Papp A→B at 2 h, 5 μM (×10⁻⁶ cm/s)
Write down the numeric answer in ×10⁻⁶ cm/s and omit the unit.

// recorded Papp A→B at 2 h, 5 μM for CC(=O)NC(Cc1cc(F)cc(F)c1)C(O)CNC1(CCOCC(C)(C)C)CC1 (centres unmarked) : 9.74

Papp A→B at 2 h, 5 μM in this record for CC(=O)NC(Cc1cc(F)cc(F)c1)C(O)CNC1(C(=O)NCCC(C)(C)C)CC1 (centres unmarked) : 3.33

Reported Papp A→B at 2 h, 5 μM of CC(=O)NC(Cc1cc(F)cc(F)c1)C(O)CNC1(C(=O)NCC(C)(C)C)CC1 (centres unmarked) : 6.15

Value of measured Papp A→B at 2 h, 5 μM for the entry CC(=O)NC(Cc1cc(F)cc(F)c1)C(O)CNC1(C(=O)N(C)c2ccccc2)CC1 (centres unmarked) : 4.56

Query CC(=O)NC(Cc1cc(F)cc(F)c1)C(O)CNC1(CCCn2cccn2)CC1 (centres unmarked) yields Papp A→B at 2 h, 5 μM of 4.39

Briefly, Papp A→B at 2 h, 5 μM measured for CC(=O)NC(Cc1cc(F)cc(F)c1)C(O)CNC1(CCOCC(C)(C)C)CC1C (single isomer, unassigned) : 8.18

GET /value?item= CC(=O)NC(Cc1cc(F)cc(F)c1)C(O)CNC1(Cc2c(F)cccc2F)CC1 (centres unmarked) &field=Papp A→B at 2 h, 5 μM returns 19.1

The compound CC(=O)NC(Cc1cc(F)cc(F)c1)C(O)CNC1(COCCC(C)(C)C)C2CCCC21 (centres unmarked) showed Papp A→B at 2 h, 5 μM equal to 4.73

###

Test: In vitro permeability across a monolayer of MDCK cells in a transwell device
Assay type: in vitro ADME, Canine
Conditions: dog, MDCK, test compound 5 μM, 2 h at 37° C., apical to basolateral, read-out: Permeability Forward A > B
Assignment: determine reported Papp A→B at 2 h, 5 μM for the given compounds.
Form entry: value (nm/s) — number only.

Briefly, Papp A→B at 2 h, 5 μM measured for CC(=O)NC(Cc1cc(F)cc(F)c1)C(O)CNC1(Cc2cn(CC(C)(C)C)nn2)CC1 (centres unmarked) : 43.1

# Papp A→B at 2 h, 5 μM of CC(=O)NC(Cc1cc(F)cc(F)c1)C(O)CNC1(CSCC(C)(C)C)CC1 (centres unmarked) = 101

Entry CC(=O)NC(Cc1cc(F)cc(F)c1)C(O)CNC1(Cc2ccccc2F)CC1 (centres unmarked) — recorded Papp A→B at 2 h, 5 μM = 212

Notebook: CC(=O)NC(Cc1cc(F)cc(F)c1)C(O)CNC1(Cc2cc(C(C)(C)C)on2)CC1 (centres unmarked) , Papp A→B at 2 h, 5 μM read as 93.2

Memo: CC(=O)NC(Cc1cc(F)cc(F)c1)C(O)CNC1(C/C=C/CC(C)(C)C)CC1 (centres unmarked) , reported Papp A→B at 2 h, 5 μM: 42.8

For record CC(=O)NC(Cc1cc(F)cc(F)c1)C(O)CNC1(CCCCC(C)(C)C)CC1 (centres unmarked) the listed Papp A→B at 2 h, 5 μM is 33.1

# compound CC(=O)NC(Cc1cc(F)cc(F)c1)C(O)CNC1(CCCC(C)C)CC1 (centres unmarked) ; its Papp A→B at 2 h, 5 μM = 43.3

Looking up CC(=O)NC(Cc1cc(F)cc(F)c1)C(O)CNC1(CCCCn2cccn2)CC1 (centres unmarked) , I see its Papp A→B at 2 h, 5 μM listed as 34.7
